Assay: acute toxicity (LD50) in mice
Type: in vivo, mouse
Details: mouse, in vivo, po, mouse, per os; Table 3; read-out: A - lethal dose (LD50) to mice, per os
From the text: In the Table 3 which follows are listed results of tests pertaining to the effectiveness of various compounds that are disclosed herein. The results are included in the several columns under letters whose significance is as follows: A - lethal dose (LD50) to mice in milligrams per kilogram of body weight of the mouse when administered per os. B - lethal dose (LD50) to mice in milligrams per kilogram of body weight of the mouse when administered intraperitoneally. […]
LD50 values by entry
A number alone suffices; assume mg/kg.

Exercise: State the recorded LD50 for this entry: C=C1C2OC(OC)C3C1CC(OC(=O)NCC)C3(C)O2 (stereo not shown)
Key: 872

Exercise: Quick one: LD50 for CCNC(=O)OC1CC2C(C)C3OC(OCC)C2C1(C)O3 (stereo not shown) ?
Key: 1470

Exercise: What value of LD50 has been recorded for this entry: COC1OC2OC3(C)C(OC(C)=O)CC(C2C)C13 (stereo not shown)
Key: 1470

Exercise: Which LD50 value belongs to C=C1C2OC(OC)C3C1CC(O)C3(C)O2 (stereo not shown) ?
Key: 610

Exercise: Requested field: LD50. Item: C=C1C2OC(OCC)C3C1CC(OC(=O)NCC)C3(C)O2 (stereo not shown)
Key: 944

Exercise: # lookup: LD50 of CCC(=O)OC1CC2C(C)C3OC(OC)C2C1(C)O3 (stereo not shown)
Key: 1470

###

Test system: mouse
Assay: lowering of the rectal temperature in mice
Assay type: in vivo
Details: mouse; Table 5; read-out: L dose required to produce a lowering of the rectal temperature
Excerpt: The values specified in Tables 4 and 5 hereinafter refer to milligrams per kilogram of body weight of the mouse. Tests performed in accordance with the procedure described by Campbell and Richter in Acta Pharmacol. et Toxicol., vol. […]
quantity name: minimal effective dose
Report field: quantity (unit follows the number).

These recorded examples may help you get a feel for the data.
[[record]]
molecule = "COC1OC2OC3(C)C(OC(=O)CC(C)C)CC(C2C)C13 (centres unmarked) [Compound No. 2215]"
result = "200 mg/kg"

[[record]]
molecule = "C=C1C2OC(OC)C3C1CC(OC(=O)CC)C3(C)O2 (centres unmarked) [Compound No. 2118]"
result = "100 mg/kg"

[[record]]
molecule = "C=C1C2OC(OC)C3C1CC(OC(C)=O)C3(C)O2 (centres unmarked) [Compound No. 2117]"
result = "50 mg/kg"


Could you now consider this next molecule?
Exercise: Which minimal effective dose reading was recorded for the molecule CCC(=O)OC1CC2C(C)C3OC(OC)C2C1(C)O3 (centres unmarked) [compound 2081] ?
Key: 100 mg/kg

###

test system: white mice; test: ptosis test (Campbell and Richter screening); format: in vivo, mouse; details: mouse; Table 5
quantity name: F ptosis test

[[record]]
compound = "COC1OC2OC3(C)C(OC(C)=O)CC(C2C)C13 (stereo not shown)"
result = "100 milligrams per kilogram of bod"

[[record]]
compound = "C=C1C2OC(OC)C3C1CC(OC(C)=O)C3(C)O2 (stereo not shown)"
result = "100 milligrams per kilogram of bod"

[[record]]
compound = "COC1OC2OC3(C)C(O)CC(C2C)C13 (stereo not shown)"
result = "100 milligrams per kilogram of bod"

[[record]]
compound = "COC1OC2OC3(C)C(OC(=O)CC(C)C)CC(C2C)C13 (stereo not shown)"
result = "50 milligrams per kilogram of bod"

[[record]]
compound = "C=C1C2OC(OC)C3C1CC(O)C3(C)O2 (stereo not shown)"
result = "100 milligrams per kilogram of bod"


Exercise: Bench note: what F ptosis test did C=C1C2OC(OC)C3C1CC(OC(=O)CC)C3(C)O2 (stereo not shown) show?
Key: 100 milligrams per kilogram of bod

Exercise: Fill in: F ptosis test of CCC(=O)OC1CC2C(C)C3OC(OC)C2C1(C)O3 (stereo not shown) is ___
Key: 200 milligrams per kilogram of bod

###

assay: acute toxicity (LD50) in mice; assay type: in vivo, mouse; conditions: in vivo, ip; mouse, intraperitoneal; Table 4; read-out: B. lethal dose (LD50) to mice, intraperitoneally
quantity name: LD50 (mg/kg)
# value in mg/kg; strip the unit string

Reference set, count: 3
[[record]]
compound = "C=CCNC(=O)OC1CC2C(C)C3OC(OC)C2C1(C)O3 (stereo not shown) [Compound No. 2274]"
quantity_name = "LD50"
result = 279

[[record]]
compound = "C=C1C2OC(OC)C3C1CC(OC(=O)NCCC)C3(C)O2 (stereo not shown) [compound 2388]"
quantity_name = "LD50"
result = 516

[[record]]
compound = "CCCCNC(=O)OC1CC2C(C)C3OC(OC)C2C1(C)O3 (stereo not shown) [compound 2327]"
quantity_name = "LD50"
result = 432


Okay, now this compound:
Exercise: # LD50 lookup, item CNC(=O)OC1CC2C(C)C3OC(OC)C2C1(C)O3 (stereo not shown) [compound 2500]
Key: 954

###

tested on: mouse; experiment: lowering of the rectal temperature in mice; assay type: in vivo; details: mouse; Table 5; read-out: L dose required to produce a lowering of the rectal temperature
quantity name: minimal effective dose (mg/kg)
Write the value in mg/kg as a bare number.

Exercise: Param item = COC1OC2OC3(C)C(O)CC(C2C)C13 (stereo not shown) ; retrieve measured minimal effective dose.
Key: 100

Exercise: What value of minimal effective dose has been recorded for this entry: C=C1C2OC(OC)C3C1CC(O)C3(C)O2 (stereo not shown)
Key: 200

Exercise: What value of measured minimal effective dose is listed for COC1OC2OC3(C)C(OC(C)=O)CC(C2C)C13 (stereo not shown) ?
Key: 400

Exercise: Can you share its minimal effective dose? I mean this compound: C=C1C2OC(OC)C3C1CC(OC(=O)CC(C)C)C3(C)O2 (stereo not shown)
Key: 100

Reference source for all entries: patent US4016176A
